Catalogue of compounds with associated IC50
# MEASURED ON: IMP-1 (Serratia marcescens)
# Sequence (P52699 whole entry, looked up): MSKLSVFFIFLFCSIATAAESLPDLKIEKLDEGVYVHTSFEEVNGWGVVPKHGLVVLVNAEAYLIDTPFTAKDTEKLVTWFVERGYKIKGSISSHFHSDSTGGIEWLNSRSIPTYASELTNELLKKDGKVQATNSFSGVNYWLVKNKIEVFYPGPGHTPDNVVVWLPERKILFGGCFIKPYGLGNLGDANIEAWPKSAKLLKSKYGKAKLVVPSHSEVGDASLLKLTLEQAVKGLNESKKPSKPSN
# EXPERIMENTAL PROTOCOL: biochemical
# Format: biochemical
# STATED CONDITIONS: IMP-1 enzyme, CCF2-FA substrate; read-out: IMP-1 IC50
Return type: number; implicit unit nM.

Completed entries (count: 2):
> print(dat)
                                   compound  number
1  N[C@@H]1CCCN(c2ccc(-c3ccc(C(F)(F)F)c(S(N)(=O)=O)c3-c3nnn[nH]3)cc2)C1 [Example 727]    1.97
2  NCCS(=O)(=O)c1ccc(-c2ccc(C(F)(F)F)c(S(N)(=O)=O)c2-c2nnn[nH]2)cc1 [Example 736]    3.23

Exam item: Which IC50 value belongs to NCCNc1ccc(-c2cccc(S(N)(=O)=O)c2-c2nnn[nH]2)cn1 [Example 634] ?
Marked response: 1280

Exam item: Which IC50 value belongs to NS(=O)(=O)c1c(C(F)(F)F)ccc(-c2cccc3c[n+]([O-])ccc23)c1-c1nn[nH]n1 [Example 516] ?
Marked response: 12.6

Exam item: Which IC50 value belongs to NS(=O)(=O)c1c(C[C@H]2CC[C@@H](N)CC2)ccc(-c2ccc(C3CNC3)cc2)c1-c1nnn[nH]1 [Example 596] ?
Marked response: 10.6
